Target: HIV protease (Human immunodeficiency virus type 1 group M subtype B, UniProt P04585)
Construct: HIV protease is diluted in the assay buffer to a final enzyme concentration of 12.3 nanomolar, based on a molecular weight of 10,780
Test: HIV protease enzyme assay (fluorogenic substrate 2-aminobenzoyl-Ile-Nle-Phe(p-NO2)-Gln-ArgNH2)
Assay type: biochemical
Conditions: Table 8; 80 μM substrate, 12.3 nanomolar enzyme, pH 6.4; read-out: IC50
Experimental: The compounds of the present invention are effective HIV protease inhibitors. Utilizing an enzyme assay as described below, the compounds set forth in the examples herein disclosed inhibited the HIV enzyme. […] The final concentration of DMSO is 14% and the final concentration of glycerol is 18%. […] The increase in fluorescence is monitored at 4 time points (0, 8, 16 and 24 minutes) at ambient temperature. […]
Measured Parameter: log10 IC50 (log10 of the value in nM)

>  <Compound>
CC(C)CN(C[C@@H](O)[C@H](Cc1ccccc1)NC(=O)[C@H](C)C(C)(C)C(=O)OCc1ccccc1)S(=O)(=O)c1ccccc1

>  <log10 IC50>
1.53

$$$$
>  <Compound>
CC(C)CCN(C[C@@H](O)[C@H](Cc1ccccc1)NC(=O)[C@H](C)C(C)(C)C(=O)O)S(=O)(=O)c1ccccc1 (single isomer, unassigned)

>  <log10 IC50>
0.30

$$$$
>  <Compound>
CC(C)CN(C[C@@H](O)[C@H](Cc1ccccc1)NC(=O)[C@H](C)C(C)(C)C(=O)O)S(=O)(=O)c1ccccc1

>  <log10 IC50>
0.00

$$$$
>  <Compound>
COc1ccc(S(=O)(=O)N(CC(C)C)C[C@@H](O)[C@H](Cc2ccccc2)NC(=O)[C@H](C)C(C)(C)C(=O)OCc2ccccc2)cc1

>  <log10 IC50>
1.20

$$$$
>  <Compound>
CC(C)CCN(C[C@@H](O)[C@H](Cc1ccccc1)NC(=O)[C@H](C)C(C)(C)C(N)=O)S(=O)(=O)c1ccccc1 (single isomer, unassigned)

>  <log10 IC50>
0.30

$$$$
>  <Compound>
COc1ccc(S(=O)(=O)N(CC(C)C)C[C@@H](O)[C@H](Cc2ccccc2)NC(=O)[C@H](C)C(C)(C)C(=O)O)cc1

>  <log10 IC50>
0.30

$$$$
>  <Compound>
COc1ccc(S(=O)(=O)N(CC(C)C)C[C@@H](O)[C@H](Cc2ccccc2)NC(=O)[C@H](C)C(C)(C)C(N)=O)cc1

>  <log10 IC50>
0.30

$$$$
>  <Compound>
CC(C)CCN(C[C@@H](O)[C@H](Cc1ccccc1)NC(=O)[C@H](C)C(C)(C)C(=O)OCc1ccccc1)S(=O)(=O)c1ccccc1 (relative stereo)

>  <log10 IC50>
1.90

$$$$
